System: acyl-CoA:cholesterol acyltransferase (ACAT)
Experiment description: inhibitory effect in the enzymatic activities of acyl-CoA:cholesterol acyltransferase (ACAT)
Assay type: biochemical
Test settings: head prints 10^14 M; rat liver microsomes; 2 min
Recorded metric: Inhibitory effect to ACAT (inhibitory ratio), Table 5

CC(C)OP(=O)(Cc1ccc(C(=O)NCCc2ccccc2)cc1)OC(C)C	83.3%
CCOP(=O)(Cc1cccc(C(=O)Nc2ccccc2)c1)OCC	37.6%
CCOP(=O)(Cc1ccc(C(=O)Nc2cccc(C(F)(F)F)c2)cc1)OCC	39.5%
CCOP(=O)(Cc1ccc(C(=O)N(c2ccccc2)C(C)C)cc1)OCC	20.1%
CCOP(=O)(Cc1ccc(C(=O)NCCC(c2ccccc2)c2ccccc2)cc1)OCC	87.7%
CCCCCCNC(=O)c1ccc(C(C)P(=O)(OC(C)C)OC(C)C)cc1 (centres unmarked)	88.9%
CCOP(=O)(Cc1ccc(C(=O)N(c2ccccc2)c2ccccc2)cc1)OCC	63.1%
O=C(Nc1c(Cl)cccc1Cl)c1ccc(CP(=O)(Oc2ccccc2)Oc2ccccc2)cc1	73.9%

The origin of these recorded values is patent US5081112A.
